- Tested on: Klebsiella aerogenes DSM 30053
- assay_comment: fold change of Cadaverine concentration vs plate DMSO controls (fold change (ratio)); higher = more amine produced, active = hit call of the paper (significant change in both replicates, either direction)
- measurement_context: incubation time: 27 h, anaerobic, 37 °C
Counter-ions that a name gives are not always drawn.

| compound | fold change of Cadaverine concentration |
| --- | --- |
| Nc1nc2ccc(OC(F)(F)F)cc2s1 [Riluzole hydrochloride] (20 µM) | 0.983 |
| CCOC(=O)C(C)(N)Cc1cc(I)c(Oc2cc(I)c(O)c(I)c2)c(I)c1 (configuration not stated) [Etiroxate hydrochloride] (20 µM) | 1 |
| CC(C)(C)CC(C)(C)c1ccc(OCCOCC[N+](C)(C)Cc2ccccc2)cc1 [Benzethonium chloride] (20 µM) | 0.988 |
| O=C1c2c(O)cccc2Cc2cccc(O)c21 [Anthralin] (20 µM) | 0.999 |
| COc1ccccc1O [Guaiacol] (20 µM) | 0.988 |
| CC[C@H]1OC(=O)C[C@@H](O)[C@H](C)[C@@H](O[C@@H]2O[C@H](C)[C@@H](O[C@H]3C[C@@](C)(O)[C@@H](O)[C@H](C)O3)[C@H](N(C)C)[C@H]2O)[C@@H](CC=O)C[C@@H](C)C(=O)/C=C/C(C)=C/[C@@H]1CO[C@@H]1O[C@H](C)[C@@H](O)[C@@H](OC)[C@H]1OC [Tylosin] (20 µM) | 1.02 |
| O=C1c2ccccc2S(=O)(=O)N1CCCCN1CCN(c2ncccn2)CC1 [Ipsapirone] (20 µM) | 1 |

###

- Test system: Clostridium sporogenes DSM 1664
- assay_comment: fold change of Tryptamine concentration vs plate DMSO controls (fold change (ratio)); higher = more amine produced, active = hit call of the paper (significant change in both replicates, either direction)
- measurement_context: incubation time: 27 h, anaerobic, 37 °C
Counter-ions that a name gives are not always drawn.
Please mark y if the recorded fold change of Tryptamine concentration is equal to or greater than 1, and n if it falls below.

| molecule | tgt | label_class |
| --- | --- | --- |
| CCCCS(=O)(=O)N[C@@H](Cc1ccc(OCCCCC2CCNCC2)cc1)C(=O)O [Tirofiban hydrochloride] (20 µM) | Clostridium sporogenes DSM 1664 | n |
| C[C@@H](O)[C@H]1C(=O)N2C(C(=O)O)=C(S[C@@H]3CN[C@H](CNS(N)(=O)=O)C3)[C@H](C)[C@H]12 [Doripenem monohydrate] (20 µM) | Clostridium sporogenes DSM 1664 | n |
| OCC(CO)N[C@H]1C[C@](O)(CO)[C@@H](O)[C@H](O)[C@H]1O [Voglibose] (20 µM) | Clostridium sporogenes DSM 1664 | y |
| Cc1cccc(CN2CCN(C(c3ccccc3)c3ccc(Cl)cc3)CC2)c1 (stereo not drawn) [Meclozine dihydrochloride] (20 µM) | Clostridium sporogenes DSM 1664 | y |
| CC1(C)S[C@@H]2[C@H](NC(=O)C(C(=O)O)c3ccccc3)C(=O)N2[C@H]1C(=O)O (stereo partly drawn) [Carbenicillin disodium salt] (20 µM) | Clostridium sporogenes DSM 1664 | n |

###

- System: Ruminococcus gnavus DSM 108212
- assay_comment: fold change of 2-Phenylethylamine concentration vs plate DMSO controls (fold change (ratio)); higher = more amine produced, active = hit call of the paper (significant change in both replicates, either direction)
- measurement_context: incubation time: 27 h, anaerobic, 37 °C
Where a name gives a salt, the structure may show the parent alone.
Decide using fold change of 2-Phenylethylamine concentration: a value greater than or equal to 0.8 is Yes, a smaller one is No.

| compound | label_class |
| --- | --- |
| CCC(Cc1c(I)cc(I)c(N)c1I)C(=O)O (stereo not drawn) [Iopanoic acid] (20 µM) | Yes |
| OCCN1CCN(CCCN2c3ccccc3Sc3ccc(Cl)cc32)CC1 [Perphenazine] (20 µM) | Yes |
| CC(C)OC(=O)CCC/C=C\C[C@@H]1[C@@H](CC[C@@H](O)CCc2ccccc2)[C@H](O)C[C@@H]1O [Latanoprost] (20 µM) | No |
| N#Cc1cc(NC(=O)C(=O)O)c(Cl)c(NC(=O)C(=O)O)c1 [Lodoxamide] (20 µM) | Yes |
| N[C@@H](CCC(=O)N[C@@H](CS)C(=O)NCC(=O)O)C(=O)O [Glutathione] (20 µM) | Yes |
| Fc1ccc(C(c2ccc(F)cc2)N2CCN(C/C=C/c3ccccc3)CC2)cc1 [Flunarizine dihydrochloride] (20 µM) | Yes |
| C[C@H]1[C@H](OC(=O)CCC(=O)O)O[C@@H]2O[C@@]3(C)CC[C@H]4[C@H](C)CC[C@@H]1[C@@]24OO3 [Artesunate] (20 µM) | Yes |
| N[C@@H](C(=O)N[C@@H]1C(=O)N2C(C(=O)O)=C(Cl)CC[C@H]12)c1ccccc1 [Loracarbef] (20 µM) | No |

###

Measured growth values are reported for all entries that follow.
- System: Clostridium sporogenes DSM 1664
- assay_comment: growth (OD595) fold change vs plate DMSO controls (fold change (ratio)); higher = more growth
- measurement_context: incubation time: 27 h, anaerobic, 37 °C

| compound | tgt | growth |
| --- | --- | --- |
| COc1ccc(NS(=O)(=O)c2ccc(N)cc2)nn1 [Sulfamethoxypyridazine] (20 µM) | Clostridium sporogenes DSM 1664 | 0.883 |
| O=C(NC1CCN(CCCCC2(C(=O)NCC(F)(F)F)c3ccccc3-c3ccccc32)CC1)c1ccccc1-c1ccc(C(F)(F)F)cc1 [Lomitapide] (20 µM) | Clostridium sporogenes DSM 1664 | 1.1 |
| CNCCC=C1c2ccccc2C=Cc2ccccc21 [Norcyclobenzaprine] (20 µM) | Clostridium sporogenes DSM 1664 | 1.1 |
| Cc1cc(NC(=O)C2=C(O)c3ccccc3S(=O)(=O)N2C)no1 [Isoxicam] (20 µM) | Clostridium sporogenes DSM 1664 | 1.11 |

###

Recorded fold change of Cadaverine concentration values for a group of molecules are listed next.
- Test system: Escherichia coli IAI1
- assay_comment: fold change of Cadaverine concentration vs plate DMSO controls (fold change (ratio)); higher = more amine produced, active = hit call of the paper (significant change in both replicates, either direction)
- measurement_context: incubation time: 27 h, anaerobic, 37 °C

| molecule | tgt | fold change of Cadaverine concentration |
| --- | --- | --- |
| Cn1cnc([N+](=O)[O-])c1Sc1ncnc2[nH]cnc12 [Azathioprine] (20 µM) | Escherichia coli IAI1 | 0.974 |
| CC(C)OC(=O)C(C)(C)Oc1ccc(C(=O)c2ccc(Cl)cc2)cc1 [Fenofibrate] (20 µM) | Escherichia coli IAI1 | 1.03 |
| CC(C)[C@H]1CC[C@H](C(=O)N[C@H](Cc2ccccc2)C(=O)O)CC1 [Nateglinide] (20 µM) | Escherichia coli IAI1 | 0.984 |
| C[C@@H]1C[C@H]2[C@@H]3C[C@H](F)C4=CC(=O)C=C[C@]4(C)[C@@]3(F)[C@@H](O)C[C@]2(C)[C@@]1(O)C(=O)CO [Flumethasone] (20 µM) | Escherichia coli IAI1 | 1.04 |

###

- System: Escherichia coli IAI1
- assay_comment: fold change of Cadaverine concentration vs plate DMSO controls (fold change (ratio)); higher = more amine produced, active = hit call of the paper (significant change in both replicates, either direction);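 for the amine columns active = adjusted P below 0.05 in both replicates with a change the same way and a mean fold change under 0.8 or over 1.25; inactive = the rest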
- measurement_context: incubation time: 27 h, anaerobic, 37 °C
Counter-ions that a name gives are not always drawn.
Outcome codes: True = active, False = inactive

| compound | label_class |
| --- | --- |
| CCCCCCCCc1c(CC)nc2ncnn2c1N (20 µM) | False |
| CCn1cc(C(=O)O)c(=O)c2cnc(N3CCNCC3)nc21 [Pipemidic acid] (20 µM) | True |
| Nc1nc(=O)[nH]cc1F [Flucytosine] (20 µM) | False |
| CCOC(=O)[C@@](C)(N)Cc1ccc(O)c(O)c1 [Methyldopate hydrochloride] (20 µM) | False |
| CC(C)(CO)[C@@H](O)C(=O)NCCC(=O)NCCSSCCNC(=O)CCNC(=O)[C@H](O)C(C)(C)CO [D-Pantethine] (20 µM) | False |

###

- Tested on: Klebsiella aerogenes DSM 30053
- assay_comment: growth (OD595) fold change vs plate DMSO controls (fold change (ratio)); higher = more growth
- measurement_context: incubation time: 27 h, anaerobic, 37 °C
Structures can show the parent of a compound that is named as a salt.
Reported growth by item:
value_kind: growth

| compound | value_kind | result_number |
| --- | --- | --- |
| CN(C/C=C/c1ccccc1)Cc1cccc2ccccc12 [Naftifine hydrochloride] (20 µM) | growth | 0.994 |
| CCC(=O)c1ccc(O)cc1 [Paroxypropione] (20 µM) | growth | 0.996 |
| CC(C)Cc1ccc(C(C)C(=O)OCc2ccccn2)cc1 (stereo not given) [Ibuprofen Piconol] (20 µM) | growth | 0.98 |
| Cc1cc2c(cc1S(N)(=O)=O)S(=O)(=O)CCC2 [Meticrane] (20 µM) | growth | 1.02 |
| Cc1ccc(C(C)NC(=O)[C@@H](NC(=O)OC(C)C)C(C)C)cc1 (stereo not given in full) (20 µM) | growth | 1.04 |
